Reference for the values: the supplement of paper PMC11246515

For each record, write down the corresponding total protein half-life in vivo.
test: total protein half-life in vivo (active degradation + dilution); higher = more stable protein
reportedConditions: E. coli NCM3722 delta-clpP delta-lon delta-hslV; growth: N-lim chemostat; doubling time 6 h
One number for each entry, in h.

For every record below, what is its total protein half-life in vivo?
1. MKKIPLGTTDITLSRMGLGTWAIGGGPAWNGDLDRQICIDTILEAHRCGINLIDTAPGYNFGNSEVIVGQALKKLPREQVVVETKCGIVWERKGSLFNKVGDRQLYKNLSPESIREEVAASLQRLGIDYIDIYMTHWQSVPPFFTPIAETVAVLNELKSEGKIRAIGAANVDADHIREYLQYGELDIIQAKYSILDRAMENELLPLCRDNGIVVQVYSPLEQGLLTGTITRDYVPGGARANKVWFQRENMLKVIDMLEQWQPLCARYQCTIPTLALAWILKQSDLISILSGATAPEQVRENVAALNINLSDADATLMREMAEALER
2. MTLRKILALTCLLLPMMASAHQFETGQRVPPIGITDRGELVLDKDQFSYKTWNSAQLVGKVRVLQHIAGRTSAKEKNATLIEAIKSAKLPHDRYQTTTIVNTDDAIPGSGMFVRSSLESNKKLYPWSQFIVDSNGVALGAWQLDEESSAVVVLDKDGRVQWAKDGALTPEEVQQVMDLLQKLLK
3. MNFLAHLHLAHLAESSLSGNLLADFVRGNPEESFPPDVVAGIHMHRRIDVLTDNLPEVREAREWFRSETRRVAPITLDVMWDHFLSRHWSQLSPDFPLQEFVCYAREQVMTILPDSPPRFINLNNYLWSEQWLVRYRDMDFIQNVLNGMASRRPRLDALRDSWYDLDAHYDALETRFWQFYPRMMAQASRKAL

Result:
1. 3.71
2. 3.41
3. 5.09
